These data points were gathered from ChEMBL document CHEMBL5370557.

target: Isocitrate dehydrogenase [NADP] cytoplasmic (Homo sapiens, UniProt O75874, R132H); assay: Inhibition of IDH1 R132H mutant (unknown origin) expressed in Escherichia coli BL21 (DE3) assessed as NADPH consumption using alpha-KG as substrate measured after 60 mins
Sequence (O75874 2-414 R132H limits assumed): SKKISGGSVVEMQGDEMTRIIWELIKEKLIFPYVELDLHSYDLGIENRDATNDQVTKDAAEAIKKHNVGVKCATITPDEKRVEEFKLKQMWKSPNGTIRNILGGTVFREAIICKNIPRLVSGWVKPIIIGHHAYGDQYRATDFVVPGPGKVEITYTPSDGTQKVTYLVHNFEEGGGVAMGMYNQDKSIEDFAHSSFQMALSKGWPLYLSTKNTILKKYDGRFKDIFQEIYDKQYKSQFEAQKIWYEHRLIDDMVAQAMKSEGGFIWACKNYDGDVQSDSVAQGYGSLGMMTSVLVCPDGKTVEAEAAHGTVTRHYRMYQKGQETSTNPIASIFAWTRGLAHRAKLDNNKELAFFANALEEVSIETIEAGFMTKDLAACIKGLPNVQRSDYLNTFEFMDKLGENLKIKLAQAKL
Response field class: string, computed from recorded IC50 by ranges low-valued = under 0.2 µM, mid-valued = from 0.2 µM up to 0.7 µM, high-valued = 0.7 µM and over

Answered cases to consult:
C=CS(=O)(=O)Nc1ccc(Nc2ccc([C@H](C)Nc3ncc(F)c(N4C(=O)OC[C@@H]4C(C)C)n3)cc2)cc1N(C)C : low-valued
C=CS(=O)(=O)Nc1ccc(Nc2ccc([C@H](C)Nc3ncc(F)c(N4C(=O)OC[C@@H]4C(C)C)n3)cc2)cc1OC : low-valued
CCS(=O)(=O)NC1CCN(c2ccc([C@H](C)Nc3ncc(C#N)cn3)cc2)CC1 : high-valued
CCC(=O)NC1CCCN(c2ccc([C@H](C)Nc3ncc(F)c(N4C(=O)OC[C@@H]4C(C)C)n3)cc2)C1 (stereo partly specified) : mid-valued
C=CS(=O)(=O)NC1CCN(c2ccc([C@H](C)Nc3nccc(N4C(=O)OC[C@@H]4C(C)C)n3)cc2)CC1 : low-valued
C=CC(=O)NC1CCN(c2ccc([C@H](C)Nc3ncc(F)c(N4C(=O)OC[C@@H]4C(C)C)n3)cc2)CC1 : low-valued

Prompt: Lab log: "CC(C)[C@H]1COC(=O)N1c1nc(N[C@@H](C)c2ccc(Nc3ccc(NC(=O)CCl)c(N4CCOCC4)c3)cc2)ncc1F" — assign IC50 category
Completion: high-valued

Prompt: Lab log: "C=CC(=O)Nc1ccc(Nc2ccc([C@H](C)Nc3ccc(C#N)cn3)cc2)cc1N(C)C" — assign IC50 category
Completion: high-valued

Prompt: Lab log: "C=CS(=O)(=O)Nc1ccc(Nc2ccc([C@H](C)Nc3ncc(F)c(N4C(=O)OC[C@@H]4C(C)C)n3)cc2)cc1C" — assign IC50 category
Completion: low-valued

Prompt: Lab log: C=CC(=O)NC1CCCN(c2ccc([C@H](C)Nc3ncc(F)c(N4C(=O)OC[C@@H]4C(C)C)n3)cc2)C1 (stereo partly specified) — assign IC50 category
Completion: mid-valued

Prompt: Lab log: "C=CS(=O)(=O)N1CCC(Nc2ccc([C@H](C)Nc3nccc(N4C(=O)OC[C@@H]4C(C)C)n3)cc2)CC1" — assign IC50 category
Completion: low-valued

Prompt: Lab log: "C=CS(=O)(=O)NC1CCN(c2ccc([C@H](C)Nc3ncc(C#N)cn3)cc2)CC1" — assign IC50 category
Completion: high-valued

---

target: Isocitrate dehydrogenase [NADP] cytoplasmic (Homo sapiens, UniProt O75874, R132C); experiment: Inhibition of IDH1 R132C mutant (unknown origin) expressed in Escherichia coli BL21 (DE3) assessed as NADPH consumption using alpha-KG as substrate measured after 60 mins
Sequence (O75874 2-414 R132C limits assumed): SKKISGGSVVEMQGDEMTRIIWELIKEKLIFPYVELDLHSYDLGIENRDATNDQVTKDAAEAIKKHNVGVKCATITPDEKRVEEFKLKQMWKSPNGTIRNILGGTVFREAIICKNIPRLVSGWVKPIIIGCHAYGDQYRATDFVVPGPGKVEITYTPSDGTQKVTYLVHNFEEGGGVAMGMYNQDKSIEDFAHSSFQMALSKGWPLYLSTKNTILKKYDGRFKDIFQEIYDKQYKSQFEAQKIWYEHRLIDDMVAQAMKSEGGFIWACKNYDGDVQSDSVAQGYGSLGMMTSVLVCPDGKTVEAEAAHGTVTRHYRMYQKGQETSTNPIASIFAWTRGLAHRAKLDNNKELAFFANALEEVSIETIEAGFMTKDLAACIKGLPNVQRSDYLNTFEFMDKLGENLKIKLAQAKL
measurement_type: IC50 (nM)
Just the number please, in nM, no unit attached.

Prompt: Determine reported IC50 for "C=CS(=O)(=O)NC1CCN(c2ccc([C@H](C)Nc3ncc(F)c(N4C(=O)OC[C@@H]4C(C)C)n3)cc2)CC1" ; test system: Isocitrate dehydrogenase [NADP] cytoplasmic (Homo sapiens, UniProt O75874, R132C).
Completion: 139

---

assay: Apparent volume of distribution in Sprague-Dawley rat at 1 mg/kg, iv measured upto 24 hrs by LC-MS/MS analysis; assay type: ADME, organism-based; settings: in vivo, read-out: Vz
measurement_type: Vd

Prompt: Identify Vd associated with the molecule "C=CS(=O)(=O)NC1CCN(c2ccc([C@H](C)Nc3ncc(F)c(N4C(=O)OC[C@@H]4C(C)C)n3)cc2)CC1"
Completion: 5.39 L/kg

---

experiment: Tmax in Sprague-Dawley rat at 10 mg/kg, po measured upto 24 hrs by LC-MS/MS analysis; format: ADME, organism-based; settings: in vivo
measurement_type: Tmax (min)
Just the number please, in min, no unit attached.

Prompt: Identify Tmax associated with the compound "C=CS(=O)(=O)NC1CCN(c2ccc([C@H](C)Nc3ncc(F)c(N4C(=O)OC[C@@H]4C(C)C)n3)cc2)CC1"
Completion: 15

---

assay: Cmax in Sprague-Dawley rat at 10 mg/kg, po measured upto 24 hrs by LC-MS/MS analysis; type: ADME, organism-based; parameters: time < 24 hrs, dose 10 mg/kg, route po; conditions: in vivo
measurement_type: Cmax (ng/mL)
Just the number please, in ng/mL, no unit attached.

Prompt: Identify Cmax associated with the compound "C=CS(=O)(=O)NC1CCN(c2ccc([C@H](C)Nc3ncc(F)c(N4C(=O)OC[C@@H]4C(C)C)n3)cc2)CC1"
Completion: 88.1

---

biological target: Isocitrate dehydrogenase [NADP] cytoplasmic (Homo sapiens, UniProt O75874, R132H); test: Inhibition of IDH1 R132H mutant (unknown origin) expressed in HEK293T cells assessed as inhibition of 2-HG generation measured after 48 hrs by LC-MS/MS analysis; format: cell-based
Recorded pIC50 values for a group of compounds are listed next.
The value called pIC50 is obtained by taking minus log10 of the concentration in mol/L.

Some solved entries appear below for comparison.
C=CS(=O)(=O)Nc1ccc(Nc2ccc([C@H](C)Nc3ncc(F)c(N4C(=O)OC[C@@H]4C(C)C)n3)cc2)cc1C : 6.06
C=CC(=O)NC1CCCN(c2ccc([C@H](C)Nc3ncc(F)c(N4C(=O)OC[C@@H]4C(C)C)n3)cc2)C1 (some centres undefined) : 6.53
CCC(=O)Nc1ccc(Nc2ccc([C@H](C)Nc3ncc(F)c(N4C(=O)OC[C@@H]4C(C)C)n3)cc2)cc1N1CCOCC1 : 5.00
C=CC(=O)Nc1cc(Nc2ccc([C@H](C)Nc3ncc(F)c(N4C(=O)OC[C@@H]4C(C)C)n3)cc2)ccc1N(C)C : 6.94
C=CS(=O)(=O)Nc1ccc(Nc2ccc([C@H](C)Nc3ncc(F)c(N4C(=O)OC[C@@H]4C(C)C)n3)cc2)cc1N1CCN(CC)CC1 : 6.06

Prompt: Identify pIC50 associated with the compound "C=CC(=O)Nc1ccc(Nc2ccc([C@H](C)Nc3ncc(F)c(N4C(=O)OC[C@@H]4C(C)C)n3)cc2)cc1N1CCOCC1"
Completion: 6.48

Prompt: Identify pIC50 associated with the compound "C=CS(=O)(=O)Nc1ccc(Nc2ccc([C@H](C)Nc3ncc(F)c(N4C(=O)OC[C@@H]4C(C)C)n3)cc2)cc1N(C)C"
Completion: 5.90

Prompt: Identify pIC50 associated with the compound "C=CS(=O)(=O)Nc1ccc(Nc2ccc([C@H](C)Nc3ncc(F)c(N4C(=O)OC[C@@H]4C(C)C)n3)cc2)cc1N1CCOCC1"
Completion: 5.82

Prompt: Identify pIC50 associated with the compound "C=CS(=O)(=O)Nc1ccc(Nc2ccc([C@H](C)Nc3ncc(F)c(N4C(=O)OC[C@@H]4C(C)C)n3)cc2)cc1F"
Completion: 7.35

Prompt: Identify pIC50 associated with the compound "C=CC(=O)NC1CCN(c2ccc([C@H](C)Nc3ncc(F)c(N4C(=O)OC[C@@H]4C(C)C)n3)cc2)CC1"
Completion: 6.34

Prompt: Identify pIC50 associated with the compound "C=CS(=O)(=O)Nc1ccc(Nc2ccc([C@H](C)Nc3ncc(F)c(N4C(=O)OC[C@@H]4C(C)C)n3)cc2)cc1OC"
Completion: 5.32

Prompt: Identify pIC50 associated with the compound "CCS(=O)(=O)NC1CCN(c2ccc([C@H](C)Nc3ncc(F)c(N4C(=O)OC[C@@H]4C(C)C)n3)cc2)CC1"
Completion: 5.83

Prompt: Identify pIC50 associated with the compound "C=CS(=O)(=O)NC1CCN(c2ccc([C@H](C)Nc3nccc(N4C(=O)OC[C@@H]4C(C)C)n3)cc2)CC1"
Completion: 7.43

Prompt: Identify pIC50 associated with the compound "CCC(=O)Nc1cc(Nc2ccc([C@H](C)Nc3ncc(F)c(N4C(=O)OC[C@@H]4C(C)C)n3)cc2)ccc1N1CCOCC1"
Completion: 6.90

---

target: Isocitrate dehydrogenase [NADP] cytoplasmic (Homo sapiens, UniProt O75874, R132H); experiment: Inhibition of IDH1 R132H mutant (unknown origin) expressed in Escherichia coli BL21 (DE3) assessed as NADPH consumption using alpha-KG as substrate measured after 60 mins
Recorded pIC50 values for a group of compounds are listed next.
The value called pIC50 is obtained by taking minus log10 of the concentration in mol/L.

Some solved entries appear below for comparison.
C=CS(=O)(=O)Nc1ccc(Nc2ccc([C@H](C)Nc3ncc(F)c(N4C(=O)OC[C@@H]4C(C)C)n3)cc2)cc1N1CCOCC1 : 7.06
C=CS(=O)(=O)N1CCC(Nc2ccc([C@H](C)Nc3ncc(F)c(N4C(=O)OC[C@@H]4C(C)C)n3)cc2)CC1 : 7.38
C=CC(=O)Nc1cc(Nc2ccc([C@H](C)Nc3ncc(F)c(N4C(=O)OC[C@@H]4C(C)C)n3)cc2)ccc1N(C)C : 6.81
CCC(=O)Nc1ccc(Nc2ccc([C@H](C)Nc3nccc(N4C(=O)OC[C@@H]4C(C)C)n3)cc2)cc1N1CCN(CC)CC1 : 5.56
CCC(=O)Nc1cc(Nc2ccc([C@H](C)Nc3ncc(F)c(N4C(=O)OC[C@@H]4C(C)C)n3)cc2)ccc1N1CCOCC1 : 7.11

Prompt: Determine reported pIC50 for CC(C)[C@H]1COC(=O)N1c1nc(N[C@@H](C)c2ccc(N3CCCC(NC(=O)CCl)C3)cc2)ncc1F (stereo partly drawn) ; test system: Isocitrate dehydrogenase [NADP] cytoplasmic (Homo sapiens, UniProt O75874, R132H).
Completion: 6.29

Prompt: Determine reported pIC50 for "C=CS(=O)(=O)Nc1ccc(Nc2ccc([C@H](C)Nc3ncc(F)c(N4C(=O)OC[C@@H]4C(C)C)n3)cc2)cc1F" ; test system: Isocitrate dehydrogenase [NADP] cytoplasmic (Homo sapiens, UniProt O75874, R132H).
Completion: 8.23

Prompt: Determine reported pIC50 for "CCS(=O)(=O)N1CCC(Nc2ccc([C@H](C)Nc3nccc(N4C(=O)OC[C@@H]4C(C)C)n3)cc2)CC1" ; test system: Isocitrate dehydrogenase [NADP] cytoplasmic (Homo sapiens, UniProt O75874, R132H).
Completion: 6.23
